# test-target: GPX4 (glutathione peroxidase 4) (Homo sapiens, UniProt P36969)
# Sequence (P36969 28-197): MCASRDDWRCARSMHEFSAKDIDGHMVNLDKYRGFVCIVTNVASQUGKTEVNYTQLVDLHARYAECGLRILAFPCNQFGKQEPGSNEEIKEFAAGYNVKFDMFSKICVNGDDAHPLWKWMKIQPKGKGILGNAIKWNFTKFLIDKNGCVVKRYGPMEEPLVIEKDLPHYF
# measurement-protocol: in vitro GPX4 enzyme inhibition (Cayman kit […], glutathione reductase/NADPH-coupled, A340); supported by western blot band shift in HEK293 cells
# Assay type: biochemical
readout-name: IC50

Returns the measured IC50 for the input compound. Input: C#CC(=O)N(c1ccc2c(c1)OCO2)C(C(=O)NC1CCCC1)c1ccccc1F (stereo not shown)
0.34 µM
